B1: library; numbered along this chain (parent)
chain: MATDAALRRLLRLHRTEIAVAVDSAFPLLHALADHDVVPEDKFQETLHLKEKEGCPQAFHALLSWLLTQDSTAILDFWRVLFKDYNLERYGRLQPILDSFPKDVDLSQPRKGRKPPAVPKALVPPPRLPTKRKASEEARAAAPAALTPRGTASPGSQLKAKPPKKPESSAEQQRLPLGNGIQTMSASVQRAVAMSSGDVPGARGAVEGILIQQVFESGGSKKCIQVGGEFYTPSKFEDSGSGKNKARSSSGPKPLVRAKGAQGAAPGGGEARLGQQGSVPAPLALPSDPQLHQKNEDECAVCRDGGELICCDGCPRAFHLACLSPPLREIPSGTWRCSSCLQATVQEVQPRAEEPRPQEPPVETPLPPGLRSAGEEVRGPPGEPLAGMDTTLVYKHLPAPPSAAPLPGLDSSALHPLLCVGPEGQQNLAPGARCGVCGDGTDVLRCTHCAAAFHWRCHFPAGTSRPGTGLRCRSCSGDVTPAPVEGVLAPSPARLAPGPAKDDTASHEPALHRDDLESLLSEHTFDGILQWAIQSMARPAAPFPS

Variants of: B1
assay_comment: AIRE transcriptional activation functional score (insulin promoter-GFP; nonsense median 0, synonymous median 1) (normalised score); higher = higher AIRE activity (more reporter activation)
assay_conditions: with insulin promoter-GFP reporter in HEK293
Reported values of AIRE transcriptional activation functional score for individual entries
// no unit string in output, number only

Some variants with known AIRE transcriptional activation functional score results, for comparison:
A202R ... 1.08
A138M ... 2.84
A202W ... 0.488
P124R ... 0.769
G438W ... 1.26

INPUT: Identify measured AIRE transcriptional activation functional score associated with V104N
OUTPUT: -0.244

INPUT: Name the recorded AIRE transcriptional activation functional score of the item A403P in your answer.
OUTPUT: 0.99

INPUT: Give AIRE transcriptional activation functional score for L63N
OUTPUT: 0.0814

INPUT: Could you please provide reported AIRE transcriptional activation functional score for V377A ? Thanks!
OUTPUT: 0.734

INPUT: Supply recorded AIRE transcriptional activation functional score for D503L here.
OUTPUT: 1

INPUT: Indicate its recorded AIRE transcriptional activation functional score; the variant in question is A140H
OUTPUT: 1.37

Just for reference, the supplement of paper PMC12667976 is where these values come from.
